Entries and their inhibition at 1 µM
Test system: Th17 cells
Assay: Differentiation inhibition experiments on Th17 cells (IL-17A content in supernatant by ELISA)
Assay type: cell-based, C57 mouse
Conditions: 1 μM compound; differentiation of mouse naïve CD4+ T cells to Th17, IL-17A ELISA; read-out: Inhibition Rate (1 μM)

Worked cases, answers included:
O=C(O)c1ccc(N2C(=O)/C(=C/c3c(Cl)cccc3Cl)c3c(F)cccc32)cc1 [Example 15B]
< 50%
O=C(O)c1ccc(N2C(=O)/C(=C\c3c(Cl)cccc3Cl)c3c(F)cccc32)cc1 [Example 15A]
> 50%
Cc1cccc2c1/C(=C/c1c(Cl)cccc1C1CC1)C(=O)N2c1ccc(C(=O)O)cc1
> 50%

Task: Look up inhibition at 1 µM: COc1cccc(Cl)c1/C=C1\C(=O)N(c2ccc(C(=O)O)c(O)c2)c2cccc(C)c21
Result: > 50%

Task: Also O=C(O)c1ccc(N2C(=O)/C(=C/c3c(Cl)cccc3C3CC3)c3c(F)cccc32)cc1 [Example 16B] ?
Result: > 50%

Task: Also Cc1cccc2c1/C(=C/c1c(Cl)cccc1Cl)C(=O)N2c1ccc(C(=O)O)c(O)c1 ?
Result: > 50%

Task: Also Cc1cccc(Cl)c1/C=C1\C(=O)N(c2ccc(C(=O)O)c(O)c2)c2cccc(C)c21 ?
Result: > 50%

Task: Also Cc1cccc2c1/C(=C/c1c(Cl)cccc1C1CC1)C(=O)N2c1ccc(C(=O)O)c(O)c1 ?
Result: > 50%
